Values compiled from the nanobody polyreactivity screen of Harvey et al. (2022).

run-description: yeast display, Sf9 membrane polyspecificity reagent, FACS + sequencing; frameworks hold sequencing errors
assay-readout: polyreactivity (PSR sort gate)

Would you please look over these solved cases?
INSERT INTO results (residues, result) VALUES
  ('QVQLVESGGGLVQAGGSLRLSCAASGFTFTWYAMGLYRQAPGKERELVAAISSGGGRTYYADSVKGRFTISRDNAKNTVYLQMNRLKPEDTAVYYCNAVAGGVYVDNGYDYWGQGTQVTVSS', 'high polyreactivity'),
  ('HVQLVESGGGLVQAGGSLRLSCAASGFTFARYAMGWYRQAPGKERDLVATITRSGDSTNYADSVKGRFTISRDNAKNTVYLQMNSLKPEDTAVYYCNRRYPIWYRTMNYWGQGTQVTVSS', 'high polyreactivity'),
  ('QVQLVESGGGLVQAGGSLRLSCAASGPTIDLYAMGCYRQAPGKERELVATIRSDGSTTYADSVKGRFTISRDNAKNTVYLQLNSLKPEDTAVYDCAAAFRSGFSSSTTPVQSDWGQGTQVTVSS', 'low polyreactivity'),
  ('QVQLVESGGGLVQAGGSLRLSCAASGITFAYYVMGWYRQAPGKERELVAAINWSGGSTYYADSVKGRFTISRDNAKNTVYLQMNSLKPEDTAVYYCAADWSTWYGEKFYWGQGTQVTVSS', 'high polyreactivity');

Quick one: give measured polyreactivity (PSR sort gate) for "QVQLVESGGGLVQAGGSLRLSCAASGRTFKYNAMGWYRQAPGKERELVATITRSGGSTYADSVKGRFTISRDNAKNTVYLQMNSLKPEDTAVYYCNLFHVTKDYKTYPQSRYDYWGQGTQVTVSS"
high polyreactivity
